Kindly state Dissociation Constant Ratio normalized to WT IL-18 for each of the entries shown.
test.system: T1, Human IL-18BP (amino acids 31-194), biotinylated (human, UniProt O95998 31-194, biotin on the AviTag (BirA ligase) where used biotinylated)
T1 construct: Soluble decoy receptor; also called hIL-18BP; recombinant IL-18BP
T1 sequence: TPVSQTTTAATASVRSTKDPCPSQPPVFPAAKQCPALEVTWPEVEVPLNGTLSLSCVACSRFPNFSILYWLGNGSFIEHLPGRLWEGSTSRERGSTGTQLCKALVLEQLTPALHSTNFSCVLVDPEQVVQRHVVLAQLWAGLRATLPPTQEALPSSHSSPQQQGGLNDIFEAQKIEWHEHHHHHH
test.protocol: on-yeast binding isotherms; KD ratio relative to WT IL-18
Hey, just send me the number, nothing else.

q: # query: Dissociation Constant Ratio normalized to WT IL-18 of entry SEQ ID NO: 34 (human DR-IL-18 variant hCS1) (ligand, Engineered variant) YFGKLESKLSVIRNLNDQVLFIDQGNRPLFEDMTDSDCRDNAPRTIFIISTYKDSQPRGKAVTISVKCEKISTLSCENKIISFKEMNPPDNIKDTKSDIIFFQRDVPGHKHKMQFESSSYEGYFLACEKERDLFKLILKKEDELGDRSIMFTVQNED
a: 1020

q: Could you do the same for SEQ ID NO: 36 (human DR-IL-18 variant hCS3) (ligand, Engineered variant) RFGKLESKLSVIRNLNDQVLFIDQGNRPLFEDMTDSDCRDNAPRTIFIISTYKDSQPRGKAVTISVKCEKISTLSCENKIISFKEMNPPDNIKDTKSDIIFFQRDVPGHKHKMQFESSSYEGYFLACEKERDLFKLILKKEDELGDRSIMFTVQNED , please?
a: 348
